PROCEDURE TEXT: ASC/caspase-1 reporter retest in S. cerevisiae at one dose, specificity check for NALP1 project (AID 488857)
TEST CONDITIONS: S. cerevisiae ASC/Caspase-1, beta-galactosidase luminescence, 24 h; at 10 µM
Among all 1,400 compounds or so, about 560 (40%) were called active.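 Rule for the calls: active = mean inhibition over duplicate tests at 10 µM above 50%; inactive = the rest.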 The set was probably picked from earlier hits. The list shows a part of the results.
API: response.call in active, inactive

> print(dat)
                                   molecule  assigned.class
1  CCOc1cc(/C=N/NC(=O)c2nn(C)cc2Br)ccc1OCc1ccccc1Cl        inactive

Query block: Hello, I am checking results. What call was entered for OC(CN1CCCCC1)Cn1c2ccc(Cl)cc2c2cc(Cl)ccc21 (stereo unspecified) ?
Result block: inactive

Query block: Returns: the outcome recorded for "O=C(CSCc1cccc(Cl)c1)Nc1ccccc1-c1ccccc1" in this assay.
Result block: active

Query block: Tell me the recorded outcome of this test for "COC1=C(Nc2ccccc2)C(=O)c2ccccc2C1=O" .
Result block: inactive

Query block: Give the logged outcome of this assay for the following molecule: "CCN(CC)S(=O)(=O)c1cccc(C(=O)N[C@H](C(=O)O)C(C)C)c1"
Result block: inactive

Query block: Entry "O=C(CSC1=NS(=O)(=O)c2ccccc21)Nc1ccccc1" : call = ?
Result block: inactive

Query block: GET /call?item= OC(CN1CCN(Cc2ccccc2)CC1)Cn1c2ccccc2c2ccccc21 (stereo unspecified) returns the recorded outcome of this test.
Result block: active

Query block: // outcome(item) with item = "Cc1c(-c2nc(N)nc(Nc3ccccc3)n2)oc2ccccc12"
Result block: inactive

###

PROCEDURE TEXT: ASC/caspase-1 reporter retest in S. cerevisiae at one dose, specificity check for NALP1 project (AID 488857)
TEST CONDITIONS: S. cerevisiae ASC/Caspase-1, beta-galactosidase luminescence, 24 h; at 10 µM
The campaign covered roughly 1,400 compounds. About 560 (40%) were called active.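 The calls were made as follows: active = mean inhibition over duplicate tests at 10 µM above 50%; inactive = the rest.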 So high a share suggests a set chosen from earlier hits. This is one part of the list.
Field 'call' accepts active, inactive

Here are 2 compounds together with their reported answers.
> print(dat)
                                   compound  assigned.class
1  Cc1ccc(C)c(NC(=O)CSc2nnc(-c3ccccc3)o2)c1        inactive
2              Cc1ccc(NC(=O)Cn2cccc2)c(C)c1        inactive

Query block: I'd appreciate the recorded outcome for COC(=O)c1c(NC(NC(=O)C(C)C)C(Cl)(Cl)Cl)sc2c1CCC2 (centres undefined) from this test.
Result block: inactive

Query block: Recorded call for "O=C(NC1CCCC1)c1ccc(CN2CCOCC2)cc1" ?
Result block: inactive

Query block: Kindly provide the recorded test outcome for the following compound: "O=C1/C(=C\c2cccnc2)CN(Cc2ccccc2)C/C1=C\c1cccnc1"
Result block: inactive

Query block: Please indicate how the test categorized "CCOC(=O)c1c(C)n(C)c2cc(-c3ccc(C)cc3)c(O)cc12" .
Result block: inactive

Query block: GET /call?item= "CCn1c(SCC(=O)Nc2oc(-c3ccccc3)c(-c3ccccc3)c2C#N)nnc1-c1cc(OC)cc(OC)c1" returns the recorded outcome of this test.
Result block: inactive

Query block: Tell me the assay call for O=C(O)CC1NC(=S)N(c2ccccc2)C1=O (centres undefined) please.
Result block: inactive

Query block: Returns: the outcome recorded for O=S(=O)(CC(CN1CCCC1)N1CCCC1)c1ccc2ccccc2c1 (centres undefined) in this assay.
Result block: inactive

Query block: Record lookup: outcome of this test for "CC(C)(C#CCN1CCCCC1)OCCOC(c1ccccc1)c1ccccc1" ?
Result block: inactive

Where do the numbers come from? From PubChem BioAssay AID488857.
